The entries below are paired with their reported pIC50.
Assay: Cytotoxicity against human PC3 cells after 72 hrs by MTT assay
Format: functional, cell-based, PC-3
Details: Homo sapiens, PC-3, 72 h; read-out: IC50
pIC50: −log10 of the molar value.
test-readout: pIC50

* O=c1c(/C=N/Nc2nc3c(c(N4CCOCC4)n2)CSCC3)coc2ccc(F)cc12 | 4.08
* O=C(O)c1ccc2occ(/C=N/Nc3nc4c(c(N5CCOCC5)n3)CSCC4)c(=O)c2c1 | 4.84
* Cc1ccc2occ(/C=N/Nc3nc4c(c(N5CCOCC5)n3)CS(=O)(=O)CC4)c(=O)c2c1 | 4.42

----------
Biological target: Phosphatidylinositol 4,5-bisphosphate 3-kinase catalytic subunit alpha isoform (Homo sapiens)
Sequence (P42336 whole entry, canonical isoform): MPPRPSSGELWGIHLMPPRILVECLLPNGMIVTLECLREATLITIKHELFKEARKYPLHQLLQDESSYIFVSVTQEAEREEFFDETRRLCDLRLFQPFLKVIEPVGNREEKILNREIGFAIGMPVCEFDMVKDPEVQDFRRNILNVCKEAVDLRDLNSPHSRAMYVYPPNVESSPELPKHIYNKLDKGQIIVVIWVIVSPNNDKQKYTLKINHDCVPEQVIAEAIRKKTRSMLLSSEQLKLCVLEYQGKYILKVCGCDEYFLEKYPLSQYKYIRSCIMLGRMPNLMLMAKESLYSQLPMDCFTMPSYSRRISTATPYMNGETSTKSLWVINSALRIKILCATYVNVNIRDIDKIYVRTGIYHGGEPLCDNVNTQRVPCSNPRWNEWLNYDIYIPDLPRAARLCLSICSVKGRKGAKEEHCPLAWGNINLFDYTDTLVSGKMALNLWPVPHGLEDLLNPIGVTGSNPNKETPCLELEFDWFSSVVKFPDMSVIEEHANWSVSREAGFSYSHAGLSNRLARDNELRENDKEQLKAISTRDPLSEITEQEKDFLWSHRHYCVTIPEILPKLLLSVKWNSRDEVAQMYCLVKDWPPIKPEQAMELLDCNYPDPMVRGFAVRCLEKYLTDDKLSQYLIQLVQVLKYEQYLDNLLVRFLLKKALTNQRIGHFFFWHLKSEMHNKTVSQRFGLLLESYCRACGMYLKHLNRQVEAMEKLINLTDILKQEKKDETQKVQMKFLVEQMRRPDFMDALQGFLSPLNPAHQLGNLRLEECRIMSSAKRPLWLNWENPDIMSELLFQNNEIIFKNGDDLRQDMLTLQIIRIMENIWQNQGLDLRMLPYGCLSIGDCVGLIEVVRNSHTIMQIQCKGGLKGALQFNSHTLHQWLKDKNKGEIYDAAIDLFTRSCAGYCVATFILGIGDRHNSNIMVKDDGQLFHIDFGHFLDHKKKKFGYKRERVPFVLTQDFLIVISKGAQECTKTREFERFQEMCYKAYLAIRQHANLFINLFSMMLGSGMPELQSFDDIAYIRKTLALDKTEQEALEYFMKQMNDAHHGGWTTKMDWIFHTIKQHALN
Test: Inhibition of PI3Kalpha (unknown origin) using PI substrate incubated for 60 mins by kinase-glo luminescence assay
Conditions: read-out: IC50
pIC50: −log10 of the molar value.
test-readout: pIC50

- O=C(O)c1ccc2occ(/C=N/Nc3nc4c(c(N5CCOCC5)n3)CSCC4)c(=O)c2c1: 6.04

----------
Experiment: Cytotoxicity against human PC3 cells after 72 hrs by MTT assay
Format: functional, cell-based, PC-3
Conditions: Homo sapiens, PC-3, 72 h; read-out: IC50
pIC50: −log10 of the molar value.
Measured pIC50, listed per entry for reference.
test-readout: pIC50

- CC(C)c1ccc2occ(/C=N/Nc3nc4c(c(N5CCOCC5)n3)CS(=O)(=O)CC4)c(=O)c2c1: 4.46
- CCc1ccc2occ(/C=N/Nc3nc4c(c(N5CCOCC5)n3)CS(=O)(=O)CC4)c(=O)c2c1: 4.52
- CC(C)c1ccc2occ(/C=N/Nc3nc4c(c(N5CCOCC5)n3)CSCC4)c(=O)c2c1: 4.76
- O=c1c(/C=N/Nc2nc3c(c(N4CCOCC4)n2)CSCC3)coc2ccc([N+](=O)[O-])cc12: 4.46
- O=c1c(/C=N/Nc2nc3c(c(N4CCOCC4)n2)CSCC3)coc2ccc(Cl)cc12: 4.49
- CC(C)(C)c1ccc2occ(/C=N/Nc3nc4c(c(N5CCOCC5)n3)CSCC4)c(=O)c2c1: 4.82
- O=c1c(/C=N/Nc2nc3c(c(N4CCOCC4)n2)CS(=O)(=O)CC3)coc2ccc(Br)cc12: 4.19
- CS(=O)(=O)N1CCN(Cc2cc3nc(-c4cccc5[nH]ncc45)nc(N4CCOCC4)c3s2)CC1: 6.70
- CC(C)(C)c1ccc2occ(/C=N/Nc3nc4c(c(N5CCOCC5)n3)CS(=O)(=O)CC4)c(=O)c2c1: 4.75
- CCc1ccc2occ(/C=N/Nc3nc4c(c(N5CCOCC5)n3)CSCC4)c(=O)c2c1: 4.62
- O=c1c(/C=N/Nc2nc3c(c(N4CCOCC4)n2)CS(=O)(=O)CC3)coc2ccc(Cl)cc12: 4.33
